Recorded values, source ChEMBL document CHEMBL5357041.

Consider the following compounds; for each one, report its Activity.
# System: Thoracic aorta
# ASSAY NOTES: Vasodilation activity against KCl-induced Sprague-Dawley rat thoracic aorta vessels contraction at 5 uM
# Type: functional
One number for each entry, in %.

Sample answers from the record:
COMPOUND: Oc1ccc(-c2cc(=S)ss2)cc1
TEST SYSTEM: Thoracic aorta
EXPERIMENTAL RESULT: 5.39
//
COMPOUND: C=C[C@]1(C)CC[C@@H](C(=C)C)C[C@H]1C(=C)COC(=O)C(NC(=O)CCC(=O)OCCOc1ccc(-c2cc(=S)ss2)cc1)C(C)CC (stereo partly drawn)
TEST SYSTEM: Thoracic aorta
EXPERIMENTAL RESULT: 2.75
//
COMPOUND: C=C[C@]1(C)CC[C@@H](C(=C)COC(=O)CCCCCCC(=O)Oc2ccc(-c3cc(=S)ss3)cc2)C[C@H]1C(=C)C
TEST SYSTEM: Thoracic aorta
EXPERIMENTAL RESULT: 5.04
//
COMPOUND: C=C[C@]1(C)CC[C@@H](C(=C)COCCCCCCCCOc2ccc(C(N)=S)cc2)C[C@H]1C(=C)C
TEST SYSTEM: Thoracic aorta
EXPERIMENTAL RESULT: 1.71
//
COMPOUND: C=C[C@]1(C)CC[C@@H](C(=C)COC(=O)CCCCCC(=O)Oc2ccc(-c3cc(=S)ss3)cc2)C[C@H]1C(=C)C
TEST SYSTEM: Thoracic aorta
EXPERIMENTAL RESULT: 6.64
//
COMPOUND: C=C[C@]1(C)CC[C@@H](C(=C)C)C[C@H]1C(=C)COC(=O)CCCCC1CCSS1 (stereo partly drawn)
TEST SYSTEM: Thoracic aorta
EXPERIMENTAL RESULT: -2.4
//
COMPOUND: C=C[C@]1(C)CC[C@@H](C(=C)C)C[C@H]1C(=C)COC(=O)CCC(=O)OCCOc1ccc(-c2cc(=S)ss2)cc1
TEST SYSTEM: Thoracic aorta
EXPERIMENTAL RESULT: -8.64
//
COMPOUND: C=C[C@]1(C)CC[C@@H](C(=C)COC(=O)CCCCC2CCSS2)C[C@H]1C(=C)C (stereo partly drawn)
TEST SYSTEM: Thoracic aorta
EXPERIMENTAL RESULT: -5.69

Provide reported Activity for each item, in the same order as listed.
1. C=C[C@]1(C)CC[C@@H](C(=C)COC(=O)/C=C\C(=O)OCCOc2ccc(-c3cc(=S)ss3)cc2)C[C@H]1C(=C)C
2. C=C[C@]1(C)CC[C@@H](C(=C)CO)C[C@H]1C(=C)C
3. C=C[C@]1(C)CC[C@@H](C(=C)COC(=O)CCC(=O)OCCOc2ccc(-c3nc(=O)ss3)cc2)C[C@H]1C(=C)C
4. C=C[C@]1(C)CC[C@@H](C(=C)COC(=O)c2c(F)cccc2C(=O)OCCOc2ccc(-c3cc(=S)ss3)cc2)C[C@H]1C(=C)C
5. C=C[C@]1(C)CC[C@@H](C(=C)COCCCCCCOc2ccc(C(N)=S)cc2)C[C@H]1C(=C)C

Result:
1.54
4.63
10.11
25.08
4.72

---

# System: Thoracic aorta
# ASSAY NOTES: Vasodilation activity against KCl-induced Sprague-Dawley rat thoracic aorta vessels contraction at 40 uM
# Format: functional
Under this convention, true denotes Activity strictly below 10% and false denotes Activity at or above 10%.

Some solved cases for reference:
COMPOUND: C=C[C@]1(C)CC[C@@H](C(=C)COC(=O)CCC(=O)OCCOc2ccc(-c3cc(=S)ss3)cc2)C[C@H]1C(=C)C
TEST SYSTEM: Thoracic aorta
ASSIGNED CATEGORY: false
--
COMPOUND: C=C[C@]1(C)CC[C@@H](C(=C)COC(=O)CCCCCC(=O)Oc2ccc(-c3cc(=S)ss3)cc2)C[C@H]1C(=C)C
TEST SYSTEM: Thoracic aorta
ASSIGNED CATEGORY: false
--
COMPOUND: C=C[C@]1(C)CC[C@@H](C(=C)C)C[C@H]1C(=C)COC(=O)CCCCC1CCSS1 (stereo not given in full)
TEST SYSTEM: Thoracic aorta
ASSIGNED CATEGORY: false
--
COMPOUND: C=C[C@]1(C)CC[C@@H](C(=C)C)C[C@H]1C(=C)COC(=O)CCC(=O)OCCOc1ccc(-c2cc(=S)ss2)cc1
TEST SYSTEM: Thoracic aorta
ASSIGNED CATEGORY: true

Q: Decide: Activity of C=C[C@]1(C)CC[C@@H](C(=C)C)C[C@H]1C(=C)COC(=O)C(NC(=O)CCCCC1CCSS1)C(C)CC (stereo not given in full) strictly below 10%?
Result: false
